Exercise: state measured Test LDOPA-DOPAquinone inhibitory activity (%) for each of the compounds provided.
System: tyrosinase
protocol_details: Tyrosinase inhibition, conversion of L-DOPA to DOPAquinone
Assay type: biochemical
condition_description: 100 μg/ml
Answers are plain numbers, in %.

>>> result_value("O=c1cc(CO)occ1O [Kojic acid, reference compound]")
35

List Test LDOPA-DOPAquinone inhibitory activity (%) for every entry below, keeping the order given.
1. Oc1cccc(O)c1 [Resorcinol, reference compound]
2. CC1OC(OC2C(O)C(COC(=O)C=Cc3ccc(O)c(O)c3)OC(OCCc3ccc(O)c(O)c3)C2O)C(OC2OC(CO)C(O)C(O)C2O)C(O)C1O (stereo not shown) [Isoteupolioside, isoteupolioside]
3. C[C@@H]1O[C@@H](O[C@@H]2[C@@H](O)[C@H](OCCc3ccc(O)c(O)c3)O[C@H](CO)[C@H]2OC(=O)/C=C/c2ccc(O)c(O)c2)[C@H](O[C@@H]2O[C@H](CO)[C@H](O)[C@H](O)[C@H]2O)[C@H](O)[C@H]1O [Teupolioside, teupolioside]

1. 0
2. 20
3. 21

###

study_target: 5 alpha reductase, type I (Homo sapiens, UniProt P18405)
Construct: made in house; host or cells: genetically modified yeast
Sequence (P18405 whole entry): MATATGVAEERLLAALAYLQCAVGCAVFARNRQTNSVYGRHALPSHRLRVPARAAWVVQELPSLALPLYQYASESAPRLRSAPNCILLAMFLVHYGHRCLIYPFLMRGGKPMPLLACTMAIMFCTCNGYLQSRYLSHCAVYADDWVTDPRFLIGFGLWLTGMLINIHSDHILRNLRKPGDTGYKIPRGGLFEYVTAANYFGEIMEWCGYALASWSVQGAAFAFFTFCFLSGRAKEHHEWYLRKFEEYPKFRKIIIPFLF
protocol_details: Type I 5 alpha reductase inhibition ([14C] testosterone conversion)
Assay type: biochemical
Description: Determination of the 5 alpha reductase inhibitory activities by Ajuga reptans extracts in comparison to Serenoa repens extracts. […] Enzyme activities have been determined in the presence of Ajuga reptans extracts, teupolioside, isoteupolioside and Serenoa repens extracts. […] In both assays, the steroids have been extracted using 5 ml of methylene chloride. […] For quantification of the results, the spots have been scraped from the TLC plate and extracted with 2 ml of ethyl acetate. […]
observable: IC50 (µM)
Give bare numbers, in µM.

Query CC1OC(OC2C(O)C(COC(=O)C=Cc3ccc(O)c(O)c3)OC(OCCc3ccc(O)c(O)c3)C2O)C(OC2OC(CO)C(O)C(O)C2O)C(O)C1O (stereo not shown) [Isoteupolioside, isoteupolioside] yields IC50 of 20.3

###

study_target: 5 alpha reductase, type II (Homo sapiens)
Construct: made in house; host or cells: genetically modified yeast
Sequence (P31213 whole entry): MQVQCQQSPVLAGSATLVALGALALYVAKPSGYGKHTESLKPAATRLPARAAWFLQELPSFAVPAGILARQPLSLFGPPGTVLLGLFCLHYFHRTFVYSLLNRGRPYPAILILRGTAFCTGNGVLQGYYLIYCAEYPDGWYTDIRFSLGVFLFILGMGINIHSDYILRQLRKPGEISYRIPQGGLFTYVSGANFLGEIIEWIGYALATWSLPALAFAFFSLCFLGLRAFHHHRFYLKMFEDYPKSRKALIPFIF
protocol_details: Type II 5 alpha reductase inhibition ([14C] testosterone conversion)
Type: biochemical
observable: IC50 (µM)
Give bare numbers, in µM.

Query CC1OC(OC2C(O)C(COC(=O)C=Cc3ccc(O)c(O)c3)OC(OCCc3ccc(O)c(O)c3)C2O)C(OC2OC(CO)C(O)C(O)C2O)C(O)C1O (stereo not shown) [Isoteupolioside, isoteupolioside] yields IC50 of 33

###

System: tyrosinase
protocol_details: Tyrosinase inhibition, oxidation of L-tyrosine to L-DOPA
Format: biochemical
condition_description: 250 μg/ml
observable: Test L-tyrosine-DOPA inhibitory activity (%)
One number for each entry, in %.

Solved cases below.
>>> result_value("Oc1cccc(O)c1 [Resorcinol, reference compound]")
56.9
>>> result_value("O=c1cc(CO)occ1O [Kojic acid, reference compound]")
94.1
>>> result_value("CC1OC(OC2C(O)C(COC(=O)C=Cc3ccc(O)c(O)c3)OC(OCCc3ccc(O)c(O)c3)C2O)C(OC2OC(CO)C(O)C(O)C2O)C(O)C1O (stereo not shown) [Isoteupolioside, isoteupolioside]")
30.9

Query C[C@@H]1O[C@@H](O[C@@H]2[C@@H](O)[C@H](OCCc3ccc(O)c(O)c3)O[C@H](CO)[C@H]2OC(=O)/C=C/c2ccc(O)c(O)c2)[C@H](O[C@@H]2O[C@H](CO)[C@H](O)[C@H](O)[C@H]2O)[C@H](O)[C@H]1O [Teupolioside, teupolioside] yields Test L-tyrosine-DOPA inhibitory activity (%) of 29.6
